# Test system: RARg:RXRa (NR concentration 270 nM, RXRa partner concentration 90 nM)
# Assay Comment: PBM binding z-score (relative to random genomic background probes); higher = stronger binding; sequences stand for … in GC…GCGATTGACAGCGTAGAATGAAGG
# PBM binding z-score binned as low bracket: < 0.4; middle bracket: ≥ 0.4 and < 4; high bracket: ≥ 4

Would you please look over these solved cases?
Q: Where would ATATGTAGGTTACATCAGGGTCATTCAGGCTATG land among the classes by reported PBM binding z-score?
Ans: high bracket

Q: The entry to classify is CGTCAAAGTTCAACTAAGGTAACGGAAAGCACGC ; which class holds it?
Ans: high bracket

Q: Which bin should I file TCTACTAGTTGAAGGGCAACCGACGAGTCCGTTT under?
Ans: low bracket

Q: Which bin, given its PBM binding z-score, does TCTCGGAGGACACGAAGGTCAGAGTTTTCCAGAG occupy?
Ans: middle bracket

Q: Textbook exercise: identify the category of the sequence given here, ATCTCTAGGTAAGACTCAGTTGAGTGAAGAACGC , according to its measured value.
Ans: low bracket

Others:
Q: Hello team, could you let me know which band the following sequence falls into: TCGAGTAGGTTAGGAGCATTCAGAATGGCGTCGA
Ans: low bracket

Q: Given GCATATAGGTAATACAGGGTGAAAGTCCGATTGT , name the class its PBM binding z-score places it in.
Ans: low bracket

Q: Bin? CCAGACAGGTGAGAGGGTAACTCAGCCTCGATTA
Ans: middle bracket

Q: Using the reported PBM binding z-score, which band applies to AATACAGGGTCATCGTAGGCTAGAGTACGCACAG ?
Ans: high bracket

Q: Form: Item = ACTTTCGGGTCAACGAGGTTATAGCACGCGTATA ; Class = ?
Ans: high bracket

Q: Hi there! Could you help me figure out the category for CAAACTAGGTCAAGAGCTCAAAGTCCGCTTCCCG please?
Ans: middle bracket

Q: Each sequence maps to one class by PBM binding z-score. Which class for CCTAGCAGGCCAGGGTCACTAAAGCATTTCGCTT ?
Ans: middle bracket

###

Answer each item with its documented PBM binding z-score.
# Tested on: PPARg:RXRa (NR concentration 180 nM, RXRa partner concentration 90 nM)
# Assay Comment: PBM binding z-score (relative to random genomic background probes); higher = stronger binding; sequences stand for … in GC…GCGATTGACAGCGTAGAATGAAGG

Q: // fetch PBM binding z-score; item: TAGCCTGGGTCATGCGGGCCAGTATAGTGTCGGC ; system: PPARg:RXRa (NR concentration 180 nM, RXRa partner concentration 90 nM)
Ans: 2.12

Q: Provide PBM binding z-score, recorded with PPARg:RXRa (NR concentration 180 nM, RXRa partner concentration 90 nM), of GCTTACGGGGCAAAGGTTATAGCATGAATAGAAT
Ans: 8.91

Q: Look up PPARg:RXRa (NR concentration 180 nM, RXRa partner concentration 90 nM) data: PBM binding z-score of TTACCAAGGTGAAAGGTCGTTGATGCACGCCTTG , then report it.
Ans: 9.01

List the reported PBM binding z-score of each sequence below.
1. TCATATAGGTAAATGCTTGGTGAAAGTCCGATCT
2. GCGACTGCGGCATCAGCAGGTTACCATAACTTAA
3. GCTCGGAGGACAAGTTCAGAGCTTTGTCCGTAGA
4. ACAGACAGGTCATGAAGGTAACTCAGGCTATCAT
5. CGTCCAAGGTCAGAGAGGTAAGTGAATGCCGAGT
6. CCTAGCAGGCAAGGGTCACTCAAGCATTTCGCTT
7. TGTCAAAGTTCAAAGGTAACGTAAGTATCCACAC

Ans:
1: 0.522; 2: -0.014; 3: -0.94; 4: 3.76; 5: 2.19; 6: 1.77; 7: 8.46

For each entry beneath this line, provide reported PBM binding z-score.
1. GATACAGGGTCAGCTAGAGGCGAGAGTATGGAAA
2. GTACCAAGGTGAATAGGTGGTTGATGAGTAGGCG
3. GATACAGGGTTAGCTAGAGGCCAGAGTATGGAAA
4. TCTGGTAGATCAAGCAGGTTAAGAAAGCCTGAGT
5. CCTAGCAGGCCAATCTGCGTCACTCAAGGCTTGA
6. CAGCCTGGGTCAGGGCCAGTATAGGAGGAACGTT
7. TCTTGTAGATCAGCAGGTTAAAAAAGCTGGCCAA
8. CGTCCAAGGTCAGCAGGTCAGTGGAAGCGACGTG

Ans:
1. 3.77
2. 0.851
3. 0.379
4. -0.556
5. -0.41
6. 0.871
7. -0.455
8. 4.05

###

# Tested on: LXRa:RXRa (NR concentration 270 nM, RXRa partner concentration 90 nM)
# Assay Comment: PBM binding z-score (relative to random genomic background probes); higher = stronger binding; sequences stand for … in GC…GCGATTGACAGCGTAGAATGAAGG
Test Readout: PBM binding z-score
Give bare numbers.

Some entries whose results are on file:
Q: Look up and report measured PBM binding z-score for this entry: CTCGAAAGGTCGTGCACAGGTGAGTATACCAAAC
Ans: 4.43

Q: Check the records and state PBM binding z-score for TATACAGGCTCAAAGGCCAGAGTACGAATGTCGA
Ans: 0.0342

Q: Fill in reported PBM binding z-score for this entry: TAGCCTAGGTCATGGGCCAGTAAACCACGCGAAC
Ans: 3.68

Quick batch: PBM binding z-score for everything below.
1. TGAATGAGTTTATAAGATCAGGGAACGTTGCAAA
2. TAGCCTAGGTCATGGGCCAGAATACCACGCGAAC
3. TCATATAGGTAAATACTAGGTGAAAGTCCGATCT
4. CAGCCTAGGTCAGGGCCAGTAAAGGAGGAACGTT
5. TCTAGCAGGCCAGAGGGACACTCAAGAGGTACGG
6. TAGCCTAGGTCAGATCGGGCCACTATACGCTATA

Ans:
1: -0.382; 2: 3.48; 3: 1.08; 4: 0.93; 5: -0.607; 6: 1.34

###

# System: PPARg:RXRa 90nM:30nM, anti-RXR (NR concentration 90 nM, RXRa partner concentration 30 nM)
# Assay Comment: PBM binding z-score (relative to random genomic background probes); higher = stronger binding; sequences stand for … in GC…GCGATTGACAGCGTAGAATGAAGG
Test Readout: PBM binding z-score
One number for each entry.

Reference set (2 entries):
Q: Please indicate PBM binding z-score recorded for CCTATTAGTTGACCATAAGGGCAACAGAAGCTCG
Ans: 0.284

Q: Answer with reported PBM binding z-score of ACTATTAGTTGAGACGAGGGCAGCCGATAGGTTG
Ans: -0.0374

Report PBM binding z-score for each item below.
1. TCTGCTAGGTCAACGATGGTTAGCTAATCTGCTA
2. ACTAGCAGGCCAAGTTTGGGTGACTCAAACAAAG
3. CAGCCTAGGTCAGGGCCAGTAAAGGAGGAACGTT

Ans:
1: 2.54; 2: -0.213; 3: 0.142

Provide PBM binding z-score values for the following items, in order.
1. CCAACTAGGTCAAGGTCAAAGTCGGTTTGTGCCA
2. TAGCCTAGGTCATTCTGGGGCCAGTATAGAAAGC
3. TCGAGTAGGTTACCCATGGGGCATTCAGCTTTCT
4. GGAACGAGGGCAAAGTTGATAGGATCTGTCGACG
5. CATGCAGGGTCAGCTAGGCCAGAGTAGGGACGGC
6. TCTGCTAGGTCAACTATGGTCAGCTAATCTGCTA
7. GCTGCTAGGTGAACTGATGGTCAGCTAAAGCTCG

Ans:
1: 7.56; 2: 1.44; 3: 1.18; 4: 6.95; 5: 1.84; 6: 2.81; 7: 0.635

###

I'd appreciate it if you could supply PBM binding z-score values for the items below.
# Tested on: PPARg:RXRa IVT, anti-PPARg (NR concentration 270 nM, RXRa partner concentration 90 nM)
# Assay Comment: PBM binding z-score (relative to random genomic background probes); higher = stronger binding; sequences stand for … in GC…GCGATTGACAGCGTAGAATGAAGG
One number for each entry.

Take a look at these entries with their results.
Q: Write down PBM binding z-score measured for item AATACAGGGTCACTAGGCCAGACTAGGTACGAAT
Ans: 5.9

Q: Please give measured PBM binding z-score of the following entry: GCTAGTTGGTCAGTAAAAGGTCTCACACCGGTCG
Ans: 0.748

Q: Report PBM binding z-score, nothing else, for this sequence: TATACAGGGACAAAGGCCAGAGTACGAATGTCGA
Ans: 1.3

Q: Identify PBM binding z-score associated with the sequence ATCGAAAGGTCGTTAGGTGAGTATACAGAAAGGC
Ans: 2.1

Q: Please report PBM binding z-score for the following sequence: CCTATTAGTTGACCAGAAGGGCAACCGAAGCTCG
Ans: 0.518

Q: Answer with reported PBM binding z-score of CAGGCTAGGTCAGGGCCAGTATAGGAGGAACGTT
Ans: 2.27

Record PBM binding z-score per entry; entries follow.
1. CCAGACAGGTGAAAGGTGACTCAGTCTGGTACGC
2. TCTCGGACGACACGAAGGTCAGAGCTTTCCAGAG
3. ATCGAAAGGTCGTGAGCTGAGTATACAGAAAGGC

Ans:
1. 3.47
2. 0.576
3. 1.49

# per-item lookup of PBM binding z-score; items listed below
1. TAGCCTAGGTCATGCGGGCCGGTATAGTGTCGGC
2. CCTTACGGCTCAAGGTTATAGCACGGGTGGTACG
3. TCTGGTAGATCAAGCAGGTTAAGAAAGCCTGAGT

Ans:
1. 2.8
2. -0.312
3. -0.178
